Origin of measurements: patent US20230312651A1

# experimentalTarget: T1, extracellular domain of hTrkB (human, UniProt Q16620 32-430)
# T1 construct: extracellular domain; Immobilised on a Ni2+-treated NTA sensor chip through the His6-tag for SPR; fixed on His pulldown Dynabeads at 200 nM for the RaPID selection; also called human TrkB; TrkB extracellular domain; not shown: His6-tag
# T1 sequence (Q16620 32-430): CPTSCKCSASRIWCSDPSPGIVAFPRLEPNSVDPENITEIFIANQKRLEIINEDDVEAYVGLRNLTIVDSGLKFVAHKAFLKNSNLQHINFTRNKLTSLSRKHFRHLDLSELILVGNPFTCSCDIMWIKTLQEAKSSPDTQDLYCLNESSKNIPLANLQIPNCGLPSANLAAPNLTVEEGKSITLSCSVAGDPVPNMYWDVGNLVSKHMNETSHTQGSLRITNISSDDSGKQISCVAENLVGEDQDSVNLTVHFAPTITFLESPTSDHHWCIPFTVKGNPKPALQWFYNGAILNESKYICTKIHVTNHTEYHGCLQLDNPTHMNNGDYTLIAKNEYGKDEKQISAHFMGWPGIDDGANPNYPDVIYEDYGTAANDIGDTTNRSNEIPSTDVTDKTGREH
# testName: RaPID affinity selection, 5 rounds, on beads carrying TrkB extracellular domain; sequencing
No end group written: not given here.
quantityMeasured: binding result

Some entries whose results are on file:
Query string: Can you look up the measured binding result of Ac-YRIHPWITTYRCGSGSGS (thioether (positions not given here); not fully specified (residue 1, bridges), In the selection it stood as a peptide-mRNA/cDNA conjugate joined through a puromycin linker) [SEQ ID NO 12] for me?
Result string: binds

Query string: Can you look up the measured binding result of Ac-YRHSSYEASAFWCGSGSGS (thioether (positions not given here); not fully specified (residue 1, bridges), In the selection it stood as a peptide-mRNA/cDNA conjugate joined through a puromycin linker) [SEQ ID NO 3] for me?
Result string: binds

Query string: Can you look up the measured binding result of Ac-YRHNSYEASAFCCGSGSGS (thioether (positions not given here); not fully specified (residue 1, bridges), In the selection it stood as a peptide-mRNA/cDNA conjugate joined through a puromycin linker) [SEQ ID NO 6] for me?
Result string: binds

Query string: Can you look up the measured binding result of Ac-YAHEGYKNSAFWCGSGSGS (thioether (positions not given here); not fully specified (residue 1, bridges), In the selection it stood as a peptide-mRNA/cDNA conjugate joined through a puromycin linker) [SEQ ID NO 9] for me?
Result string: binds

Next:
Query string: Can you look up the measured binding result of Ac-YKYKFWAYIPTNCGSGSGS (thioether (positions not given here); not fully specified (residue 1, bridges), In the selection it stood as a peptide-mRNA/cDNA conjugate joined through a puromycin linker) [SEQ ID NO 11] for me?
Result string: binds
